Biological target: UniProtKB P22756
Sequence (P22756 whole entry, the tested form may be a part): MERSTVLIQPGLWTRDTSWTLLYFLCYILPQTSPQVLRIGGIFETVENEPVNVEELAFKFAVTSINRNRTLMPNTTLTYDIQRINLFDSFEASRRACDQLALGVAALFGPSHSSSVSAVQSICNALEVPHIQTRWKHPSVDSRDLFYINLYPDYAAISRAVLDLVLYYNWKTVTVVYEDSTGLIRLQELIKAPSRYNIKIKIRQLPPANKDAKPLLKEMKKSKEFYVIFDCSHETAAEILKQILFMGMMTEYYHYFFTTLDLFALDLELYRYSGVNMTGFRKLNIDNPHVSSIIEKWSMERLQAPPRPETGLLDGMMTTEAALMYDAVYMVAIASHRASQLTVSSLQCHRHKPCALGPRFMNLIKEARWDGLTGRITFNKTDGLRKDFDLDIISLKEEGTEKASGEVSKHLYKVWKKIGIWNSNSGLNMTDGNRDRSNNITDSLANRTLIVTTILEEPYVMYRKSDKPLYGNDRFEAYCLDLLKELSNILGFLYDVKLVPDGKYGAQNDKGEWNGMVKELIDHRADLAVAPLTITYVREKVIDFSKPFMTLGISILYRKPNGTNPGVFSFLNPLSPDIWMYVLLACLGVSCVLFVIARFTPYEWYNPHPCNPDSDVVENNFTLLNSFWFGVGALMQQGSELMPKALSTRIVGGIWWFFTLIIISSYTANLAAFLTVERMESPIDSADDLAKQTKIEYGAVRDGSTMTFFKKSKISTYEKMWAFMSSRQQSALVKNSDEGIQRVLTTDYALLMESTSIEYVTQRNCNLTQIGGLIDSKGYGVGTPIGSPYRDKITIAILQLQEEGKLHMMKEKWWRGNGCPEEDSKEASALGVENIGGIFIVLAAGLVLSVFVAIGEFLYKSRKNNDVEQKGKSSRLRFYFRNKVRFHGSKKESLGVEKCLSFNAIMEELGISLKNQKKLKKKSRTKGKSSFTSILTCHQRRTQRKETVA
Experiment: Displacement of [3H]NF608 from eGFP-fused recombinant rat full length GluK1 receptor expressed in HEK293T/17 cells by liquid scintillation counting method
Format: cell-based
Conditions: read-out: Ki

structure smiles: O=C(O)Cc1cccc(O[C@H]2CN[C@H](C(=O)O)C2)c1
Ki: > 100 µM
//
structure smiles: O=C(O)c1ccccc1S[C@@H]1CN[C@H](C(=O)O)C1
Ki: > 100 µM
//
structure smiles: O=C(O)c1ccc(O[C@@H]2CN[C@H](C(=O)O)C2)cc1
Ki: > 100 µM

###

Assay: Displacement of [3H]CGP39653 from NMDA receptor in rat brain synaptosomal membranes after 60 mins by TopCount microplate scintillation counting method
Type: cell membranes
pKi: −log10 of the molar value.
assay readout: pKi

structure smiles: O=C(O)Cc1cccc(O[C@H]2CN[C@H](C(=O)O)C2)c1
measured: < 4.00
//
structure smiles: Cl.O=C(O)c1ccc(O[C@H]2CN[C@H](C(=O)O)C2)cc1
measured: 4.09
//
structure smiles: O=C(O)c1ccccc1S[C@H]1CN[C@H](C(=O)O)C1
measured: 4.72
//
structure smiles: O=C(O)c1cccc(S[C@H]2CN[C@H](C(=O)O)C2)c1
measured: 4.11
//
structure smiles: O=C(O)c1c(O[C@H]2CN[C@H](C(=O)O)C2)ccc2ccccc12
measured: < 4.00
//
structure smiles: O=C(O)c1cccc(O[C@H]2CN[C@H](C(=O)O)C2)c1
measured: < 4.00
//
structure smiles: O=C(O)c1ccc(O[C@@H]2CN[C@H](C(=O)O)C2)cc1
measured: < 4.00
//
structure smiles: Cl.O=C(O)c1cccc(C[C@H]2CN[C@H](C(=O)O)C2)c1
measured: 4.16
//
structure smiles: CC(=O)c1ccc(O[C@H]2CN[C@H](C(=O)O)C2)c(C(=O)O)c1
measured: < 4.00
//
structure smiles: O=C(O)c1ccccc1O[C@H]1CN[C@H](C(=O)O)C1
measured: < 4.00
//
structure smiles: O=C(O)c1ccc2ccccc2c1O[C@H]1CN[C@H](C(=O)O)C1
measured: < 4.00
